- System: TGBC11TKB (Gastric Carcinoma);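 also: after 72 h of two-drug dosing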
- Assay Overview: Bliss excess, mean over the matrix (fraction); higher = more synergy
Bliss excess overview
Lab note: jot down the number only; don't add units.

As a guide, the following entries are already answered.
| Compound | Bliss excess |
| --- | --- |
| COc1cc2ncnc(Nc3ccc(F)c(Cl)c3)c2cc1OCCCN1CCOCC1 [Gefitinib] + CC(C)n1c(=O)n(C)c2cnc3cc(F)c(-c4ccc(OCCCN5CCCCC5)nc4)cc3c21 [AZD1390] (first compound max 10 µM, 7x7, partner max 0.3 µM) | -0.0382 |
| C[C@@H]1COCCN1c1cc(C2([S@](C)(=N)=O)CC2)nc(-c2ccnc3[nH]ccc23)n1 [AZD6738] + Nc1ccn([C@@H]2O[C@H](CO)[C@@H](O)C2(F)F)c(=O)n1 [Gemcitabine] (first compound max 10 µM, 7x7, partner max 0.3 µM) | -0.0137 |

**Q:** Fill in the blank: the reported Bliss excess of C=CCn1c(=O)c2cnc(Nc3ccc(N4CCN(C)CC4)cc3)nc2n1-c1cccc(C(C)(C)O)n1 [AZD1775] + C[C@@H]1COCCN1C2=NC(=NC(=C2)C3(CC3)[S@](=N)(=O)C)C4=C5C=CNC5=NC=C4 [AZD6738] (first compound max 1 µM, partner max 10 µM) is ____.
**A:** 0.0431

**Q:** Report Bliss excess for O=C(c1cc(Cc2n[nH]c(=O)c3ccccc23)ccc1F)N1CCN(C(=O)C2CC2)CC1 [Olaparib] + COc1nnc2ccc(N3CCC(c4ccc(OCCN5CCN(C)C(=O)[C@H]5C)cc4)CC3)nn12 [AZD5153] (first compound max 10 µM, 7x7, partner max 1 µM) please.
**A:** -0.0543

**Q:** Name the recorded Bliss excess for COc1cc2c(cc1OCCCCCOc1cc3c(cc1OC)C(=O)N1C=C(C)C[C@H]1C=N3)N=C[C@@H]1CC(C)=CN1C2=O [SG3199] + O=C(c1cc(Cc2n[nH]c(=O)c3ccccc23)ccc1F)N1CCN(C(=O)C2CC2)CC1 [Olaparib] (first compound max 0.001 µM, 7x7, partner max 10 µM) .
**A:** -0.0038

Source: the supplement of paper PMC11061612
